# assay_system: 14-3-3ζ:BAD-112-136F interactions (Homo sapiens, UniProt P63104)
# Construct: expressed in transfected cells; host or cells: NIH-3T3 fibroblasts, bi-directional pBI-CMV1 plasmid
# experiment_description: BRET sensor screen for disruption of 14-3-3ζ-Rluc8:BAD-112-136F-mCitrine in living NIH-3T3 cells
# Format: cell-based, murine
# experimental_context: NIH3T3, 3 h, NIH-3T3 expressing BRET sensor; 20 µM, 3 h; read-out: BRET reduction on NIH-3T3
Here, each record is paired with measured inhibition at 20 µM data.
Could you give the number and then its unit, please?

compound: CN(C)c1ccc(C(=C2C=CC(=[N+](C)C)C=C2)c2ccc(N(C)C)cc2)cc1
inhibition at 20 µM: 75.6%

Ask: Return inhibition at 20 µM for the following compound: CCc1cc(/C(C)=N/OCc2ccc(C3CCCCC3)c(C(F)(F)F)c2)ccc1CN1CC(C(=O)O)C1 [BAF312 (Siponimod), Siponimod]
Result: 28.7%

Ask: Please indicate inhibition at 20 µM recorded for Cc1c(C)c2c(c(C)c1O)CCC(C)(COc1ccc(CC3SC(=O)NC3=O)cc1)O2 (stereo not shown)
Result: 30.9%

Ask: For Clc1ccc(COC(Cn2ccnc2)c2ccc(Cl)cc2Cl)c(Cl)c1 (stereo not shown) , write its inhibition at 20 µM.
Result: 48.7%

====

# assay_system: 14-3-3ζ:BAD-112-136F interactions (Homo sapiens)
# Construct: expressed in transfected cells; host or cells: NIH-3T3 fibroblasts, bi-directional pBI-CMV1 plasmid
# Sequence (P63104 1-245): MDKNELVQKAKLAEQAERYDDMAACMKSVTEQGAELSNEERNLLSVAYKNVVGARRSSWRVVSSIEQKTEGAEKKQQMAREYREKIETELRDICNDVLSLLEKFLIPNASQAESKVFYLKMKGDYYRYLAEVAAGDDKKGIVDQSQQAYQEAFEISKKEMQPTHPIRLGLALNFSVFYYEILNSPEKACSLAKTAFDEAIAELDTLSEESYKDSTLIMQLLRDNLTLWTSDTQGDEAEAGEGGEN
# experiment_description: BRET sensor screen for disruption of 14-3-3ζ-Rluc8:BAD-112-136F-mCitrine in living NIH-3T3 cells
# Assay type: cell-based, murine
# Set-up: dose or concentration left out as unconfirmed
# experimental_context: NIH3T3, 3 h, NIH-3T3 cells; hits from the primary screen; read-out: BRET reduction on NIH-3T3
# Procedure: The Z’-score, which evaluates the robustness of an HTS assay readout, was calculated according to standard protocols. For the HTS, 384-well plates were coated with 100 μg/mL poly-L-ornithine (Sigma, Missouri, United States; #P3655) overnight at 37 °C, followed by rinsing with sterilized water. NIH-3T3 cells were transfected with the BRET sensor two days prior to experimentation, followed by replating onto the pre-coated 384-well plates at a density of 20,000 cells/well. […]
Listed here are compounds together with their documented inhibition.

compound: Clc1ccc(C(Cn2ccnc2)OCc2ccc(Sc3ccccc3)cc2)c(Cl)c1 (stereo not drawn) [Fenticonazole Nitrate]
inhibition: 31.7%
//
compound: Cn1ncc(Cl)c1-c1cc(C(=O)N[C@H](CN)Cc2cccc(F)c2)sc1Cl
inhibition: 27.8%

The record that follows has no inhibition shown yet.
Ask: Supply inhibition measured with 14-3-3ζ:BAD-112-136F interactions (Homo sapiens) for `CC(C)(C)c1cc(C(C)(C)C)c(NC(=O)c2c[nH]c3ccccc3c2=O)cc1O` .
Result: 39%

Every entry's value here was drawn from paper PMC12603070.
